The measured values listed here are drawn from PubChem BioAssay AID2060901.

# System: 422866-222-R5-J1-PDC complex spheroids viability;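 also: spheroids exposed to compounds for 7 days; 100% = DMSO vehicle control viability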
# procedure.details: Anticancer human tumor 422866-222-R5-J1-PDC patient-derived pancreatic adenocarcinoma cell line growth inhibition [RAS]
# conditions.used: second compound 0.03 µM; first compound 0.1 µM; hits give low values
property.measured: viability, T/C (%)
Write down the numeric answer in % and omit the unit.

# molecule, viability, T/C / %
records = [
    ("O=C(c1ccc(F)c(F)c1Nc1ccc(I)cc1F)N1CC(O)([C@@H]2CCCCN2)C1 + CCn1c(-c2cc(N3CCN(C)CC3)cnc2C(C)OC)c2c3cc(ccc31)-c1csc(n1)CC(NC(=O)C1CC1C)C(=O)N1CCCC(N1)C(=O)OCC(C)(C)C2", 13.8),
    ("C[C@@H](NC(=O)c1ncnc(N)c1Cl)c1ncc(C(=O)Nc2cc(C(F)(F)F)c(Cl)cn2)s1 + CCn1c(-c2cccnc2C(C)OC)c2c3cc(ccc31)N1CCOC(CC(NC(=O)C(C(C)C)N(C)C(=O)C3(F)CCN(C(=O)C#CC(C)(C)N(C)C)CC3)C(=O)N3CCCC(N3)C(=O)OCC(C)(C)C2)C1", 19.7),
    ("Nc1ccn(C2OC(CO)C(O)C2(F)F)c(=O)n1 (configuration not stated) + CCn1c(-c2cc(N3CCN(C)CC3)cnc2C(C)OC)c2c3cc(ccc31)-c1csc(n1)CC(NC(=O)C1CC1C)C(=O)N1CCCC(N1)C(=O)OCC(C)(C)C2", 16.1),
    ("CC(C)NCC(C(=O)N1CCN(c2ncnc3c2C(C)CC3O)CC1)c1ccc(Cl)cc1 (configuration not stated) + CCn1c(-c2cc(N3CCN(C)CC3)cnc2C(C)OC)c2c3cc(ccc31)-c1csc(n1)CC(NC(=O)C1CC1C)C(=O)N1CCCC(N1)C(=O)OCC(C)(C)C2", 15.8),
    ("CC(=O)OC12COC1CC(O)C1(C)C(=O)C(O)C3=C(C)C(OC(=O)C(O)C(NC(=O)OC(C)(C)C)c4ccccc4)CC(O)(C(OC(=O)c4ccccc4)C21)C3(C)C (configuration not stated) + CCn1c(-c2cccnc2C(C)OC)c2c3cc(ccc31)N1CCOC(CC(NC(=O)C(C(C)C)N(C)C(=O)C3(F)CCN(C(=O)C#CC(C)(C)N(C)C)CC3)C(=O)N3CCCC(N3)C(=O)OCC(C)(C)C2)C1", 19.2),
    ("CC(Nc1ccc2c(c1)OCCn1cc(N3C(=O)OCC3C(F)F)nc1-2)C(N)=O (configuration not stated) + CCn1c(-c2cc(N3CCN(C)CC3)cnc2C(C)OC)c2c3cc(ccc31)-c1csc(n1)CC(NC(=O)C1CC1C)C(=O)N1CCCC(N1)C(=O)OCC(C)(C)C2", 11.8),
    ("O=C(c1ccc(F)c(F)c1Nc1ccc(I)cc1F)N1CC(O)([C@@H]2CCCCN2)C1 + CCn1c(-c2cccnc2C(C)OC)c2c3cc(ccc31)N1CCOC(CC(NC(=O)C(C(C)C)N(C)C(=O)C3(F)CCN(C(=O)C#CC(C)(C)N(C)C)CC3)C(=O)N3CCCC(N3)C(=O)OCC(C)(C)C2)C1", 11.5),
    ("Cc1nc(N2CCC3(CC2)COC(C)C3N)c(CO)nc1Sc1ccnc(N)c1Cl (configuration not stated) + CCn1c(-c2cc(N3CCN(C)CC3)cnc2C(C)OC)c2c3cc(ccc31)-c1csc(n1)CC(NC(=O)C1CC1C)C(=O)N1CCCC(N1)C(=O)OCC(C)(C)C2", 16.3),
]

input: Provide measured viability, T/C value, entry: C=CC(=O)Nc1cc(Nc2nccc(-c3cn(C)c4ccccc34)n2)c(OC)cc1N(C)CCN(C)C + CCn1c(-c2cccnc2C(C)OC)c2c3cc(ccc31)N1CCOC(CC(NC(=O)C(C(C)C)N(C)C(=O)C3(F)CCN(C(=O)C#CC(C)(C)N(C)C)CC3)C(=O)N3CCCC(N3)C(=O)OCC(C)(C)C2)C1
output: 15.8

input: Provide measured viability, T/C value, entry: C=CC(=O)Nc1cc(Nc2nccc(-c3cn(C)c4ccccc34)n2)c(OC)cc1N(C)CCN(C)C + CCn1c(-c2cc(N3CCN(C)CC3)cnc2C(C)OC)c2c3cc(ccc31)-c1csc(n1)CC(NC(=O)C1CC1C)C(=O)N1CCCC(N1)C(=O)OCC(C)(C)C2
output: 14.4

input: Provide measured viability, T/C value, entry: CCC(CC)c1cc(NC2CCC(N)C2)n2nccc2n1 (configuration not stated) + CCn1c(-c2cccnc2C(C)OC)c2c3cc(ccc31)N1CCOC(CC(NC(=O)C(C(C)C)N(C)C(=O)C3(F)CCN(C(=O)C#CC(C)(C)N(C)C)CC3)C(=O)N3CCCC(N3)C(=O)OCC(C)(C)C2)C1
output: 22.1

input: Provide measured viability, T/C value, entry: CC(C)n1nc(-c2ccc3oc(N)nc3c2)c2c(N)ncnc21 + CCn1c(-c2cc(N3CCN(C)CC3)cnc2C(C)OC)c2c3cc(ccc31)-c1csc(n1)CC(NC(=O)C1CC1C)C(=O)N1CCCC(N1)C(=O)OCC(C)(C)C2
output: 8.47
